This collection of values is drawn from PubChem BioAssay (NCATS).

System: NIH3T3
Test: Cytotoxic Profiling of Annotated Libraries Using Quantitative High-Throughput Screening (AID 1296008); also: % is scaled to controls: 0 for no effect and ±100 for the full control effect
Details: Five cell lines viability, CellTiter-Glo ATP luminescence, 48-72 h; stronger effect = lower value
Results filed as inconclusive are left out.

>  <molecule>
COC(=O)c1cncn1C(C)c1ccccc1 (stereo unspecified)

>  <measured.on>
NIH3T3

>  <max response, %>
3.22

$$$$
>  <molecule>
CN[C@@H](C)[C@H](O)c1ccccc1

>  <measured.on>
NIH3T3

>  <max response, %>
-5.73

$$$$
>  <molecule>
S=C(NC1CCCCC1)N1CCC(c2cnc[nH]2)CC1

>  <measured.on>
NIH3T3

>  <max response, %>
-20.5

$$$$
>  <molecule>
COC(=O)[C@@H](N)CCCN=C(N)N[N+](=O)[O-]

>  <measured.on>
NIH3T3

>  <max response, %>
1.58

$$$$
>  <molecule>
C1CCC(NC2CCCCC2)CC1

>  <measured.on>
NIH3T3

>  <max response, %>
-2.97

$$$$
>  <molecule>
c1ccc2c(CN3CCNCC3)cccc2c1

>  <measured.on>
NIH3T3

>  <max response, %>
4.9

$$$$
>  <molecule>
Cc1nc(-c2ccc(-c3ccc(C(=O)N4CCc5cc6c(cc54)C4(CCN(C)CC4)CO6)cc3)c(C)c2)no1

>  <measured.on>
NIH3T3

>  <max response, %>
1.47

$$$$
>  <molecule>
Oc1ccc2c3c1O[C@H]1c4[nH]c5c(c4C[C@@]4(O)[C@@H](C2)N(CC2CC2)CC[C@]314)C[C@@]1(O)[C@H]2Cc3ccc(O)c4c3[C@@]1(CCN2CC1CC1)[C@H]5O4

>  <measured.on>
NIH3T3

>  <max response, %>
-5.25

$$$$
>  <molecule>
CS(=O)(=O)c1ccc(C(=O)C2C(=O)CCCC2=O)c([N+](=O)[O-])c1

>  <measured.on>
NIH3T3

>  <max response, %>
4.33

$$$$
>  <molecule>
C[C@@H]1[C@H](O)[C@@H](C)C=CC=CCCC=CC=CC=CC=C[C@H](O[C@H]2O[C@@H](C)[C@H](O)[C@@H](N)[C@@H]2O)CC2O[C@](O)(C[C@@H](O)[C@H](O)CC[C@@H](O)C[C@@H](O)C[C@@H](O)CC(=O)O[C@H]1C)C[C@H](O)[C@H]2C(=O)O

>  <measured.on>
NIH3T3

>  <max response, %>
-3.28

$$$$
>  <molecule>
C[C@]12COC(=O)C[C@@H]1CC[C@@H]1[C@H]2CC[C@@]2(C)[C@H]1CC[C@]2(C)O

>  <measured.on>
NIH3T3

>  <max response, %>
-1.39

$$$$
>  <molecule>
O=[N+]([O-])c1ncc[nH]1

>  <measured.on>
NIH3T3

>  <max response, %>
-0.757

$$$$
>  <molecule>
CC(=O)Nc1ccc(OC[C@](C)(O)C(=O)Nc2ccc([N+](=O)[O-])c(C(F)(F)F)c2)cc1

>  <measured.on>
NIH3T3

>  <max response, %>
2.34

$$$$
>  <molecule>
COCCOCCO

>  <measured.on>
NIH3T3

>  <max response, %>
2.23

$$$$
>  <molecule>
CC(C)N[C@@H]1CCn2c(=O)[nH]c3cccc(c32)[C@@H]1O

>  <measured.on>
NIH3T3

>  <max response, %>
-1.8

$$$$
>  <molecule>
C#C[C@]1(O)C=C[C@@H]2[C@@H]3CCC4=CC(=O)CC[C@@H]4[C@H]3CC[C@@]21CC

>  <measured.on>
NIH3T3

>  <max response, %>
-5.86

$$$$
>  <molecule>
COc1cccc2c1[C@]13CCN(CC4CC4)[C@H](C2)[C@]1(OC)CCC(=O)C3

>  <measured.on>
NIH3T3

>  <max response, %>
3.8

$$$$
>  <molecule>
O=C(N[C@@H](COc1ccc2[nH]c(=O)[nH]c2c1)c1ccccc1)c1cccn(Cc2ccc(F)c(F)c2)c1=O

>  <measured.on>
NIH3T3

>  <max response, %>
-25.3

$$$$
>  <molecule>
C=CC(=O)NCNC(=O)C=C

>  <measured.on>
NIH3T3

>  <max response, %>
-14.2

$$$$
>  <molecule>
CC(C)(C)NC[C@H](O)c1ccc(O)cc1Cl

>  <measured.on>
NIH3T3

>  <max response, %>
-4.5

$$$$
>  <molecule>
CC(Cc1ccc(O)cc1)NCC(O)c1cc(O)cc(O)c1 (stereo unspecified)

>  <measured.on>
NIH3T3

>  <max response, %>
-6.43

$$$$
>  <molecule>
CC(O)=C(C#N)C(=O)Nc1cc(Br)ccc1Br

>  <measured.on>
NIH3T3

>  <max response, %>
-15.7

$$$$
>  <molecule>
CCOC(=O)c1c(C(C#N)=CN)c2ccc(Cl)c(Cl)c2n1C

>  <measured.on>
NIH3T3

>  <max response, %>
2.89

$$$$
>  <molecule>
CC(C)NCC(O)c1ccc([N+](=O)[O-])cc1 (stereo unspecified)

>  <measured.on>
NIH3T3

>  <max response, %>
-0.143

$$$$
>  <molecule>
C#CC1(O)CCC2C3CCC4=CC(=O)CCC4(C)C3CCC21C (stereo unspecified)

>  <measured.on>
NIH3T3

>  <max response, %>
0.477

$$$$
>  <molecule>
N=c1c2c(-c3ccccc3)c(-c3ccccc3)n(Cc3ccccc3)c2ncn1C1CCC(O)CC1 (stereo unspecified)

>  <measured.on>
NIH3T3

>  <max response, %>
-14.3

$$$$
